ASSAY TARGET: Bcr/Abl fusion protein (Homo sapiens, UniProt P00519)
Sequence (P00519 whole entry, the tested form may be a part): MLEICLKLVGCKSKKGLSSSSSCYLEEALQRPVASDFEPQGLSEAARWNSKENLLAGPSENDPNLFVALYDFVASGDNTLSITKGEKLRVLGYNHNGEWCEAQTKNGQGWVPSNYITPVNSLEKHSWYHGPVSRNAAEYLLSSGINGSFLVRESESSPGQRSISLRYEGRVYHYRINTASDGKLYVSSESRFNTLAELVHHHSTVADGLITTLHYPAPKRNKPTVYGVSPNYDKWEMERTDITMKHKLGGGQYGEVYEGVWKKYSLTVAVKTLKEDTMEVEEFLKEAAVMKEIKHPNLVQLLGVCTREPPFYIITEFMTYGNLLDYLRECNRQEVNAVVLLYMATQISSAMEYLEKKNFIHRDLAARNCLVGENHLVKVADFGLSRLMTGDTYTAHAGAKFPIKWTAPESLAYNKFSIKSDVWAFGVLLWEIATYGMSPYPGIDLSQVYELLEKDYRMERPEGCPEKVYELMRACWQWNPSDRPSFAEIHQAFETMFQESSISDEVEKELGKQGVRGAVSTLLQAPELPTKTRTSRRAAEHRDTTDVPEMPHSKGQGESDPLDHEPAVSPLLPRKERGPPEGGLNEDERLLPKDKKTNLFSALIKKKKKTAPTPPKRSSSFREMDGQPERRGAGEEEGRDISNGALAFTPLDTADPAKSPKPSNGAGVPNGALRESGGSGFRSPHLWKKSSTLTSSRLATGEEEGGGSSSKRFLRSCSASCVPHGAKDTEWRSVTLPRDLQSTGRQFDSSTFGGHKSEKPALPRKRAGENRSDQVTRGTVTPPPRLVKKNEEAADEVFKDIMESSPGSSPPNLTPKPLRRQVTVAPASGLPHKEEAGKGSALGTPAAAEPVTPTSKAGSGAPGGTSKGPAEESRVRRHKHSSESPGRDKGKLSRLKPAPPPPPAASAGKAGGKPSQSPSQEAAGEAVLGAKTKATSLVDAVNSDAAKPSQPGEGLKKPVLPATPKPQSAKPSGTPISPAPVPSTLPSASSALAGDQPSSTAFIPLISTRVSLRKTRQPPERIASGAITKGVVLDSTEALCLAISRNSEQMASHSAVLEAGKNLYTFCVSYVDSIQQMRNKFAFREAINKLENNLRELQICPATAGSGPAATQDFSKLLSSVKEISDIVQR
Sequence (P11274 whole entry, further chain, the tested form may be a part): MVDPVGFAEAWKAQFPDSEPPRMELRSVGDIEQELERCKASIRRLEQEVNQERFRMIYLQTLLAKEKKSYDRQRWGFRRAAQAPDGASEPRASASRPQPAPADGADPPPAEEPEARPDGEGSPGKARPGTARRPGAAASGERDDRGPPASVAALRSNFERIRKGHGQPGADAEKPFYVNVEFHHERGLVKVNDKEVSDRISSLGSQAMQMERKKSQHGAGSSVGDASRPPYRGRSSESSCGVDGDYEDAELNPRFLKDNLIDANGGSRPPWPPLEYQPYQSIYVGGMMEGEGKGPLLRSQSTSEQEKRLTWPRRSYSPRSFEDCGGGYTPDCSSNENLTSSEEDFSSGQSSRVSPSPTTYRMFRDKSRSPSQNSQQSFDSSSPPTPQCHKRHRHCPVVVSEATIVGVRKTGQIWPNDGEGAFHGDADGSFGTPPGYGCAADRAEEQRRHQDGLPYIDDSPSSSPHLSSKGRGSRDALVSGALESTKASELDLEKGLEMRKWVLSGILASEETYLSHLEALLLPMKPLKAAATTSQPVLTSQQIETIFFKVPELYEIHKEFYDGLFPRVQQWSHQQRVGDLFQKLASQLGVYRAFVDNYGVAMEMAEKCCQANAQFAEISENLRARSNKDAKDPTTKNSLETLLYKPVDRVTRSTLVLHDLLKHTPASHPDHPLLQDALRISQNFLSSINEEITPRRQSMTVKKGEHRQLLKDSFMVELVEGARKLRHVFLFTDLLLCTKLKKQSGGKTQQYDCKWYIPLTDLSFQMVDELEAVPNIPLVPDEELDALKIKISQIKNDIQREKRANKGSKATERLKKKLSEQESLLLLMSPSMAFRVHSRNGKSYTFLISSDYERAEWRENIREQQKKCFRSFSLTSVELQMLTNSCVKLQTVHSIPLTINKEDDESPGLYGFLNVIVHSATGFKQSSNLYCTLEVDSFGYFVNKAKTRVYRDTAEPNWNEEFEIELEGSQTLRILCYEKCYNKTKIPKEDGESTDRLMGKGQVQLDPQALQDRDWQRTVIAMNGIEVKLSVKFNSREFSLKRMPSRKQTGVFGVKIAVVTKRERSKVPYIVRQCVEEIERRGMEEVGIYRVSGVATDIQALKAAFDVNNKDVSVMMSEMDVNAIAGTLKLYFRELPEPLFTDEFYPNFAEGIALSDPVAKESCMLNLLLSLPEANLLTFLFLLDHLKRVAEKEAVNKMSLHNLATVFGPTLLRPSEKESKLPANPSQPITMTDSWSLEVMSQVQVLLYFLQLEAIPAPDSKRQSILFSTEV
ASSAY OVERVIEW: Inhibition of wild type Bcr-Abl (unknown origin) incubated for 1 hr in presence of ATP by ADP-Glo kinase assay
OBSERVATION TYPE: IC50 (µM)

See these solved cases before continuing.
SMILES REPRESENTATION: CN(C)CCNC(=O)c1cncc(-c2cccc(C(=O)N[C@H]3CN[C@@H](C(=O)Nc4ccc(Cl)c(C(F)(F)F)c4)C3)c2)c1
UNIT TAG: µM
IC50: 2.41
//
SMILES REPRESENTATION: C[C@H](NC(=O)c1cccc(-c2cncc(C(=O)NC3CC3)c2)c1)C(=O)Nc1ccc(Cl)c(C(F)(F)F)c1
UNIT TAG: µM
IC50: 1.46
//
SMILES REPRESENTATION: O=C(NC1CC1)c1cncc(-c2cccc(C(=O)N[C@H]3CN[C@@H](C(=O)Nc4ccc(Cl)c(C(F)(F)F)c4)C3)c2)c1
UNIT TAG: µM
IC50: 16

I. Nc1ccc(-c2cccc(C(=O)N[C@H]3CN[C@@H](C(=O)Nc4ccc(Cl)c(C(F)(F)F)c4)C3)c2)cn1
II. C[C@H](NC(=O)c1ccc(-c2ccc(N)nc2)cc1)C(=O)Nc1ccc(Cl)c(C(F)(F)F)c1
III. CN(C)CCNC(=O)c1cncc(-c2ccc(C(=O)N[C@H]3CN[C@@H](C(=O)Nc4ccc(Cl)c(C(F)(F)F)c4)C3)cc2)c1
IV. CC(C)(C)C(=O)Nc1ccc(-c2ccc(C(=O)N[C@H]3CN[C@@H](C(=O)Nc4ccc(Cl)c(C(F)(F)F)c4)C3)cc2)cn1
V. CS(=O)(=O)Nc1ccc(-c2cccc(C(=O)N[C@H]3CN[C@@H](C(=O)Nc4ccc(Cl)c(C(F)(F)F)c4)C3)c2)cn1
Inquiry: Arrange items by their IC50 values in increasing order. Your answer should be the labels, listed in the requested order.
Reply text: II, IV, III, V, I
(II: 0.77 µM, IV: 2.64 µM, III: 4.23 µM, V: 6.48 µM, I: 12 µM)

1. C[C@H](NC(=O)c1cccc(-c2ccc(N)nc2)c1)C(=O)Nc1ccc(Cl)c(C(F)(F)F)c1
2. C[C@H](NC(=O)c1ccc(-c2cncc(C(=O)NCCN(C)C)c2)cc1)C(=O)Nc1ccc(Cl)c(C(F)(F)F)c1
3. CCN(CC)C(=O)c1cncc(-c2cccc(C(=O)N[C@@H](C)C(=O)Nc3ccc(Cl)c(C(F)(F)F)c3)c2)c1
4. CC(=O)Nc1ccc(-c2ccc(C(=O)N[C@@H](C)C(=O)Nc3ccc(Cl)c(C(F)(F)F)c3)cc2)cn1
5. CC(=O)Nc1ccc(-c2cccc(C(=O)N[C@H]3CN[C@@H](C(=O)Nc4ccc(Cl)c(C(F)(F)F)c4)C3)c2)cn1
Inquiry: Arrange items by their IC50 values in increasing order. Your answer should be the labels, listed in the requested order.
Reply text: 4, 3, 5, 1, 2
(4: 0.2 µM, 3: 0.29 µM, 5: 0.49 µM, 1: 4.4 µM, 2: 6.62 µM)
